The following molecules are listed with their measured inhibition values.
- experimental-protocol: inhibitors of hepatocyte lipid droplet formation, primary screen, imaging, high-throughput imaging, BODIPY stain (AID 1656)
- condition-notes: AML12 mouse hepatocytes, oleate lipid droplets, at 6.5 µM; stronger effect = higher value
Screen size: about 240,000 compounds; about 950 (0.4%) were called active. The sample as a whole holds a higher share of actives than the screen did.
Respond with the bare value in %.

Lookup: Using the record for `COCCc1nn2c(=O)cc(COC(=O)c3cc(OC)c(OC)c(OC)c3)nc2s1` , report its inhibition.
Found: 7.1

Lookup: Cc1c(C(=O)NCC(c2ccco2)N2CCCC2)oc2ccc(Cl)cc12 (stereo not drawn) ?
Found: 2.8

---

The following compounds are listed with their measured cell count values.
- experimental-protocol: inhibitors of hepatocyte lipid droplet formation, primary screen, imaging, high-throughput imaging, BODIPY stain (AID 1656);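 on cell count: cells counted across two imaged fields per well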
- condition-notes: AML12 mouse hepatocytes, oleate lipid droplets, at 6.5 µM; measured here: cell count, cytotoxicity flag
In all, about 240,000 compounds went through this assay and about 950 (0.4%) were called active. The list comes from a sample in which actives are over-represented; it also holds close analogues and randomly drawn compounds.
Provide the reading as a plain figure in cells.

O=C(c1ccc(F)cc1)N1CCCC(C(=O)N2CCCCC2)C1 (stereo not given) | 708
C(=N\N1CCN(c2ccccn2)CC1)/C1=C(N2CCOCC2)C(=C/c2ccccc2)/CC1 | 680
O=C(NC(=S)Nc1ccccc1N1CCCCC1)c1ccc(F)cc1 | 720
CCCC(=O)Nc1nnc(-c2ccccc2)o1 | 702
CC(Cc1cccs1)N(Cc1ccc(Cl)cc1)C(=O)c1ccncc1 (stereo not given) | 838
CCCN(CCC)c1ccc(C(O)c2nnc(-c3ccccc3)o2)cc1 (stereo not given) | 691
O=C(Nc1ccc(F)cc1)c1ccc(S(=O)(=O)NCc2cccnc2)cc1 | 806
CCOC(=O)N1CCN(C(=O)c2ccc3c(=O)n(CCc4ccc(OC)c(OC)c4)c(=O)[nH]c3c2)CC1 | 684

Lookup: # lookup: cell count of `O=C1Nc2ccc(Br)cc2/C1=N/N=C/C1=C(N2CCOCC2)C(=C\c2ccccc2)/CC1`
Found: 750

Lookup: How about CC1CCCN(CCCNC(=O)CN2C(=O)COc3ccc(S(=O)(=O)N4CCOCC4)cc32)C1 (stereo not given) ?
Found: 780

---

- experimental-protocol: inhibitors of hepatocyte lipid droplet formation, primary screen, imaging, high-throughput imaging, BODIPY stain (AID 1656)
- condition-notes: AML12 mouse hepatocytes, oleate lipid droplets, at 6.5 µM; stronger effect = higher value
In all, about 240,000 compounds went through this assay and about 950 (0.4%) were called active. Shown is part of a subset that was picked to be rich in actives.
Please map values of inhibition to classes as shown: group A (below -20%), group B (-20% to below 10%), group C (10% or more)

Lookup: Please indicate the class for O=C(c1ccccc1)N1N=C(c2ccccc2O)CC1c1ccc(Br)cc1 (stereo not given) based on its inhibition.
Found: group B

Lookup: Same again, this time with O=C(c1ccccc1)N1CCC(CC2CC(c3ccc(Cl)cc3)=NO2)(C(=O)NCC2CCCCC2)CC1 (stereo not given)
Found: group B

Lookup: Same question for COc1ccc(C(=O)NC2CC(C)(C)Cc3c2cnn3-c2ccccc2C)o1 (stereo not given) please.
Found: group A

Lookup: Same thing, different molecule: `CCOc1ccc(CCNC(=O)CCc2nnc3ccc(N4CCCC4)nn23)cc1OCC`
Found: group C

Lookup: Try `CCOc1ccc(NC(=O)CCCCCN2C(=O)[C@@H]3Cc4ccccc4CN3C2=O)cc1` next.
Found: group C

Values compiled from PubChem BioAssay AID1656.
